- Subject Of Test: T1, XtTet3-CXXC (Xenopus tropicalis, UniProt A0JP82 58-99)
- T1 chain: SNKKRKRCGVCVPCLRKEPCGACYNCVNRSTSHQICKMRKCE
- Protocol: ITC
pKd: −log10 of the molar value.
Think of 5 as a floor: if pKd stands on it or above, it is MET; beneath it, NOT MET.

Record excerpt, results attached:
INSERT INTO assay_data (binder, classification) VALUES
  ('CCG DNA (dsDNA) DNA 1: GAATCCGGATTC DNA 2: GAATCCGGATTC', 'MET'),
  ('CcaCG DNA (dsDNA, 5-carboxyl-dC at position 6 of both strands) DNA 1: GAATCCGGATTC DNA 2: GAATCCGGATTC', 'MET');

Please tell me: is the binder ChmCG DNA (dsDNA, 5-hydroxymethyl-dC at position 6 of both strands) DNA 1: GAATCCGGATTC DNA 2: GAATCCGGATTC at or over 5 in terms of pKd?
NOT MET
